Molecular target: T1, AAV5 (adeno-associated virus 5)
T1 construct: also called adeno-associated virus serotype 5
Experiment: SPR, AAV amine-coupled to CM5 chip;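 further: nanobodies flowed as analyte at seven concentrations spanning 1–100 nM over immobilized AAV (500–800 RU), kinetic constants derived by fitting the binding curves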
Here the recorded Kd is given for each entry.
Give the value, in units of nM, as a plain number.

// below: answered binders
[
  {
    "binder": "A4-053 (VHH) VHH: VQLQESGGGLVQPGGSLRLSCAASGSIFIINTMGWYRRAPGKQRELVAAVTRGGSTNYADSVKGRFTISRDNAKNTVYLQMNSLRPEDTAVYYCHVDEVRQSSWTTSNLWGQGTQVTVSS",
    "value": 7.52
  },
  {
    "binder": "A4-063 (VHH) VHH: VQLQESGGGLVQPGGSLRLSCAASGRRFTINTMGWYRRAPGKQRELVATITRGGSTNYAGSVKGRFTISRDNPKNTVYLQMNSLRPEDTAVYYCHIDEVRQSSWTTSNLWGQGTQVTVSS",
    "value": 128
  },
  {
    "binder": "A4-081 (VHH) VHH: VQLQESGGGLVQPGGSLRLSCAASGSRFSLNTMGWYRQAPGKQRELVATVTRGGSTNYADSVKGRFTISRDNAKNTVYLQMNSLRPEDTAVYYCHVDELRESGWTTSNLWGQGTQVTVSS",
    "value": 12.5
  }
]

Now consider the entry below.
Note Kd for the binder shown: A4-077 (VHH) VHH: VQLQESGGGLVQPGGSLRLSCAASGSMFSINIMGWYRQAPGKQREFVATITRGGSTNYADFVKGRFTISRDNAKNTVYLQMNSLRPEDTAVYYCHVDELRDSSWTTSNLWGQGTQVTVSS
0.987

All figures here come from patent US20260193326A1.
